Target: UniProt:Q920P2
Sequence (Q920P2 1-313): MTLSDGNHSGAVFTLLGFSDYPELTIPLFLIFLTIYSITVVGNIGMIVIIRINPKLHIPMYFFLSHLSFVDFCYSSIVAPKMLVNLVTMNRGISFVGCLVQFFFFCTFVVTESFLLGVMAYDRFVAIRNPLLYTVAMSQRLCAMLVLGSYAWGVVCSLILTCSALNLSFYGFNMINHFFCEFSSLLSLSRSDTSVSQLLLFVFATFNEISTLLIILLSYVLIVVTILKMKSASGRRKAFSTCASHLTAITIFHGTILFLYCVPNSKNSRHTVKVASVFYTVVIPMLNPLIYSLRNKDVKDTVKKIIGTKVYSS
Test: mOR-EG/AC Ca2+ imaging: mOR-EG + Gαolf + CNGC-camp in HEK293T cells
Assay type: cell-based
Details: saturating response parameters
Measured Quantity: time to rise 10% to 90%, AC-dependent Ca2+ response (s)
Kindly provide the numeric value in s only, without the unit symbol.

Some solved cases for reference:
CCOc1cc(C=O)ccc1O [ethyl vanillin] = 36.9
CCC(C)(C)C1CCC(=O)CC1 [orivone] = 36.4
COc1cc(C=O)ccc1O [vanillin] = 31.4
C=CCc1ccc(OC(C)=O)c(OC)c1 [acetyl eugenol] = 27.6
C=CCc1ccc(OC)c(OC)c1 [methyl eugenol] = 41.6
C=CCc1ccc(O)c(OC)c1 [eugenol] = 39.4

Consider now this further compound.
## Task Find the recorded time to rise 10% to 90%, AC-dependent Ca2+ response belonging to COC(=O)c1c(C)cc(O)c(C)c1O [mousse cristal] and report it.
## Result 32.6

====

Recorded time to rise 10% to 90%, PLC-dependent Ca2+ response values for a group of compounds are listed next.
Target: mouse eugenol OR (mOR-EG) (Mus musculus, UniProt Q920P2)
Sequence (Q920P2 1-313): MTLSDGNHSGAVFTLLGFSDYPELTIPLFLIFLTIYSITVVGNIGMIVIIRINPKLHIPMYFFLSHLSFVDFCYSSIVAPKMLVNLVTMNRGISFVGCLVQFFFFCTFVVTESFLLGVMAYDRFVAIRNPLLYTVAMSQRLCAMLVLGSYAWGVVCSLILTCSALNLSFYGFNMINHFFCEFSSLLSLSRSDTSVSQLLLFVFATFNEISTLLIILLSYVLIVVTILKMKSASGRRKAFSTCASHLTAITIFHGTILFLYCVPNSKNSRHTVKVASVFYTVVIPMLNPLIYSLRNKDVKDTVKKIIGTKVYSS
Assay: mOR-EG/PLC Ca2+ imaging: mOR-EG + Gα15 in HEK293T cells
Assay type: cell-based
Settings: saturating response parameters
Give me the value, and tack the unit on after it.

Some solved cases for reference:
C=CCc1ccc(OC(C)=O)c(OC)c1 [acetyl eugenol] = 7.7 ± 0.4 s
CCOc1cc(C=O)ccc1O [ethyl vanillin] = 9.5 ± 0.8 s
C=CCc1ccc(OC)c(OC)c1 [methyl eugenol] = 5.4 ± 0.6 s
CCC(C)(C)C1CCC(=O)CC1 [orivone] = 8 ± 1 s

## Task Lab note: need time to rise 10% to 90%, PLC-dependent Ca2+ response for C=CCc1ccc(O)c(OC)c1 [eugenol] on mouse eugenol OR (mOR-EG) (Mus musculus, UniProt Q920P2), anyone have it?
## Result 7.6 ± 0.2 s

## Task How about this compound: COc1cc(C=O)ccc1O [vanillin]
## Result 8.3 ± 0.5 s

====

Biological target: mouse eugenol OR (mOR-EG) (Mus musculus)
Sequence (Q920P2 1-313): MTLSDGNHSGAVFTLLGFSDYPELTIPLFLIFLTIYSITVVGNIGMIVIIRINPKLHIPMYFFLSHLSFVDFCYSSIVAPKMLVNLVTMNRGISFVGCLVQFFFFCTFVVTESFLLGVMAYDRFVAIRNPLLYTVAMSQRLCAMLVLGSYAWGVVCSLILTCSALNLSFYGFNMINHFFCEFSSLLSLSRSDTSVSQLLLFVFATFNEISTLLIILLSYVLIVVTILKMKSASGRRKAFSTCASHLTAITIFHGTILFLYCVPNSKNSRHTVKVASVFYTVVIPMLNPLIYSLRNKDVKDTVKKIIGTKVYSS
Experiment: mOR-EG/AC Ca2+ imaging: mOR-EG + Gαolf + CNGC-camp in HEK293T cells
Assay type: cell-based
Settings: saturating response parameters
Measured Quantity: decay time 90% to 10%, AC-dependent Ca2+ response (s)
Kindly provide the numeric value in s only, without the unit symbol.

Some solved cases for reference:
CCOc1cc(C=O)ccc1O [ethyl vanillin] = 115.7
C=CCc1ccc(OC(C)=O)c(OC)c1 [acetyl eugenol] = 125.5
COC(=O)c1c(C)cc(O)c(C)c1O [mousse cristal] = 117.6
CCC(C)(C)C1CCC(=O)CC1 [orivone] = 101
C=CCc1ccc(O)c(OC)c1 [eugenol] = 128.2

## Task Find the recorded decay time 90% to 10%, AC-dependent Ca2+ response belonging to C=CCc1ccc(OC)c(OC)c1 [methyl eugenol] and report it.
## Result 101.2

## Task How about this compound: COc1cc(C=O)ccc1O [vanillin]
## Result 101.7

====

target: mouse eugenol OR (mOR-EG) (Mus musculus); assay: mOR-EG/AC Ca2+ imaging: mOR-EG + Gαolf + CNGC-camp in HEK293T cells; format: cell-based
Measured Quantity: EC50 (µM)
Kindly provide the numeric value in µM only, without the unit symbol.

Some solved cases for reference:
C=CCc1ccc(O)c(OC)c1 = 53
C=CCc1ccc(OC)c(OC)c1 = 177
CCOc1cc(C=O)ccc1O = 2170

Consider now this further compound.
## Task Find the recorded EC50 belonging to "C=CCc1ccc(OC(C)=O)c(OC)c1" and report it.
## Result 373

====

Biological target: mouse eugenol OR (mOR-EG) (Mus musculus, UniProt Q920P2)
Sequence (Q920P2 1-313): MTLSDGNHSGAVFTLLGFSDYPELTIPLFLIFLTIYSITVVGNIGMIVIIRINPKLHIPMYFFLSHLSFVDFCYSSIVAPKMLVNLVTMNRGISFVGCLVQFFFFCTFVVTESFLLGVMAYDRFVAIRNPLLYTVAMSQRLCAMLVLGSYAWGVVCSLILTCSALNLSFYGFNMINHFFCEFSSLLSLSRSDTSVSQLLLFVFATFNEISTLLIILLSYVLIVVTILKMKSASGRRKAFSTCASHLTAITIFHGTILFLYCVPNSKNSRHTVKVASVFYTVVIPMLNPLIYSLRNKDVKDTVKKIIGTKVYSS
Assay: mOR-EG/PLC Ca2+ imaging: mOR-EG + Gα15 in HEK293T cells
Format: cell-based
Conditions: saturating response parameters
Kind request: treat 50 s as inclusive, so decay time 90% to 10%, PLC-dependent Ca2+ response at 50 s or higher is yes (1), anything lower is no (0).

CCOc1cc(C=O)ccc1O [ethyl vanillin] = yes (1)
COc1cc(C=O)ccc1O [vanillin] = no (0)
C=CCc1ccc(OC(C)=O)c(OC)c1 [acetyl eugenol] = no (0)
C=CCc1ccc(OC)c(OC)c1 [methyl eugenol] = no (0)

## Task Hello, I need to know if C=CCc1ccc(O)c(OC)c1 [eugenol] has measured decay time 90% to 10%, PLC-dependent Ca2+ response not below 50 s. Thanks!
## Result yes (1)

## Task How about this compound: COC(=O)c1c(C)cc(O)c(C)c1O [mousse cristal]
## Result yes (1)

## Task How about this compound: CCC(C)(C)C1CCC(=O)CC1 [orivone]
## Result no (0)

====

Recorded time of peak, AC-dependent Ca2+ response values for a group of compounds are listed next.
biological target: UniProt:Q920P2; experiment: mOR-EG/AC Ca2+ imaging: mOR-EG + Gαolf + CNGC-camp in HEK293T cells; type: cell-based; details: saturating response parameters
Kindly provide the numeric value in s only, without the unit symbol.

Some solved cases for reference:
CCC(C)(C)C1CCC(=O)CC1 = 94.9
CCOc1cc(C=O)ccc1O = 91.6
COc1cc(C=O)ccc1O = 85.3

## Task Lab note: need time of peak, AC-dependent Ca2+ response for "C=CCc1ccc(OC(C)=O)c(OC)c1" on UniProt:Q920P2, anyone have it?
## Result 90.8

## Task How about this compound: "C=CCc1ccc(OC)c(OC)c1"
## Result 92

## Task How about this compound: "C=CCc1ccc(O)c(OC)c1"
## Result 90.5

## Task How about this compound: "COC(=O)c1c(C)cc(O)c(C)c1O"
## Result 107.3

====

Biological target: mouse eugenol OR (mOR-EG) (Mus musculus, UniProt Q920P2)
Sequence (Q920P2 1-313): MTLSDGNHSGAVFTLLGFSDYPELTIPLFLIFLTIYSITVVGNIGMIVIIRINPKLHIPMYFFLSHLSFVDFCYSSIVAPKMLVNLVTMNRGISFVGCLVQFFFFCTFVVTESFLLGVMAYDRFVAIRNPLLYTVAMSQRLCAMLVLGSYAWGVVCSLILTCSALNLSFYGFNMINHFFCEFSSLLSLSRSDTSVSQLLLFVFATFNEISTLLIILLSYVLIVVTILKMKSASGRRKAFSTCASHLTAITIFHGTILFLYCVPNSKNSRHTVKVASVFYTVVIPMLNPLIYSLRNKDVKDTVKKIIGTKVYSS
Experiment: mOR-EG/PLC Ca2+ imaging: mOR-EG + Gα15 in HEK293T cells
Format: cell-based
Conditions: saturating response parameters
Recorded time of peak, PLC-dependent Ca2+ response values for a group of compounds are listed next.
Kindly provide the numeric value in s only, without the unit symbol.

CCC(C)(C)C1CCC(=O)CC1 [orivone] = 29.8
C=CCc1ccc(O)c(OC)c1 [eugenol] = 15.4

## Task Find the recorded time of peak, PLC-dependent Ca2+ response belonging to C=CCc1ccc(OC(C)=O)c(OC)c1 [acetyl eugenol] and report it.
## Result 19.6

## Task How about this compound: COC(=O)c1c(C)cc(O)c(C)c1O [mousse cristal]
## Result 30.7

## Task How about this compound: CCOc1cc(C=O)ccc1O [ethyl vanillin]
## Result 22.6

## Task How about this compound: C=CCc1ccc(OC)c(OC)c1 [methyl eugenol]
## Result 19.8

## Task How about this compound: COc1cc(C=O)ccc1O [vanillin]
## Result 18.6
